Target: Neuronal acetylcholine receptor; alpha4/beta2 (Rattus norvegicus, UniProt P09483+P12390)
Sequence (P09483 whole entry): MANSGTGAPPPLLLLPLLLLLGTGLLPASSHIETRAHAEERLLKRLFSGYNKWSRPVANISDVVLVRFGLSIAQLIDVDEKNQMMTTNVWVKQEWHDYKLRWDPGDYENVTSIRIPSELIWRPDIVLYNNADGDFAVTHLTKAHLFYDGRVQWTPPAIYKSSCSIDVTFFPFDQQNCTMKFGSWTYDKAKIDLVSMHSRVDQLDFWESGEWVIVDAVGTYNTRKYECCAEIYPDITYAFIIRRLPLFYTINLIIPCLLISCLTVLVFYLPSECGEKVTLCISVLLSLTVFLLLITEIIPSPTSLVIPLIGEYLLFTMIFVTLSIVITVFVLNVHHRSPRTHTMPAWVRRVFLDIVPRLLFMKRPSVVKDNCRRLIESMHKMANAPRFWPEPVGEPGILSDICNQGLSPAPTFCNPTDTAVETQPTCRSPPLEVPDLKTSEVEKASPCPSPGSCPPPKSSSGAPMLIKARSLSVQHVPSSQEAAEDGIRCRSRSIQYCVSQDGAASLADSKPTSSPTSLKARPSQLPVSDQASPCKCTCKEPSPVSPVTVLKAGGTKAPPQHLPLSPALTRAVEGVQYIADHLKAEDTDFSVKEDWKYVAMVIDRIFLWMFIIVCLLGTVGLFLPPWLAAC
Sequence (P12390 whole entry): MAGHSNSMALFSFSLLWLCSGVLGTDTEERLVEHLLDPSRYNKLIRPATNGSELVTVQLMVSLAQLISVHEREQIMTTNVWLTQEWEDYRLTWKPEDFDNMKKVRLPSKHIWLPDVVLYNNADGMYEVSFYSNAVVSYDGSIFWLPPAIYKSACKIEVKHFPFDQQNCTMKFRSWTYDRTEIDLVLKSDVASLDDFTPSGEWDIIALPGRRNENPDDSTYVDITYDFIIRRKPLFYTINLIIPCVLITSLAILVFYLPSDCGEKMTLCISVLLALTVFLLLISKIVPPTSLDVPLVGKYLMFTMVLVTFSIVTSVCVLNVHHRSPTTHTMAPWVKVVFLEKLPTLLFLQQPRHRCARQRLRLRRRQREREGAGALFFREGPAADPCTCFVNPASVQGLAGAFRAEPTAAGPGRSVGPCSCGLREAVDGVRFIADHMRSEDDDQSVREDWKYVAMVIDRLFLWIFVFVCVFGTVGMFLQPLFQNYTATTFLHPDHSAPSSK
Experiment: biochemical
Description: Displacement of [3H]epibatidine from rat recombinant alpha4beta2 nAChR expressed in HEK293 cells after 4 hrs by scintillation counting analysis
metric: pKi
# reply with the number alone; pKi is -log10 of concentration in mol/L

**Q:** Supply measured pKi of C[C@H](CCOn1cccn1)N(C)C in your reply.
**A:** 7.74

**Q:** Supply recorded pKi for C[C@H](CCOc1nc(Br)cn1C)N(C)C here.
**A:** 6.92

**Q:** Give pKi for C[C@H](CCOc1cnccn1)N(C)C
**A:** 6.62

**Q:** Indicate the recorded pKi value for this compound: C[C@H](CCOc1nccs1)N(C)C
**A:** 7.89

**Q:** Return value of pKi for input C[C@H](CCOc1cccnc1)N(C)C , no commentary.
**A:** 7.52

**Q:** Retrieve pKi measured for Cc1cn(C)c(OCC[C@@H](C)N(C)C)n1 and print it.
**A:** 6.55

**Q:** Give the measured pKi for C[C@H](CCOC(=O)N(C)C)N(C)C
**A:** 7.70

---

Target: Neuronal acetylcholine receptor; alpha4/beta2 (Homo sapiens, UniProt P17787+P43681)
Sequence (P17787 whole entry): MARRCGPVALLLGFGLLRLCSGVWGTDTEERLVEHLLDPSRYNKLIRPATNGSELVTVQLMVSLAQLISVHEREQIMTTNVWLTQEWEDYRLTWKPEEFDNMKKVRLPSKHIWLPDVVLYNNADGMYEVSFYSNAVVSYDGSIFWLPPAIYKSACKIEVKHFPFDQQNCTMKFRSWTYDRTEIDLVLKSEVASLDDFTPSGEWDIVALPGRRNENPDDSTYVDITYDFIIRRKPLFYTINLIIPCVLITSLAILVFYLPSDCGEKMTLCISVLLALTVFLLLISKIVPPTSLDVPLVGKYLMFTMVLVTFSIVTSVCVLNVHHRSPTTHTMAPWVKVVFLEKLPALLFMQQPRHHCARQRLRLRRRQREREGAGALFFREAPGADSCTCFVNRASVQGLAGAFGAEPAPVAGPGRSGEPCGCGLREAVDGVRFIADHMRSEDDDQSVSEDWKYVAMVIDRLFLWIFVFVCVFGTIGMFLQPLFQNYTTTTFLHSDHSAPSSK
Sequence (P43681 whole entry): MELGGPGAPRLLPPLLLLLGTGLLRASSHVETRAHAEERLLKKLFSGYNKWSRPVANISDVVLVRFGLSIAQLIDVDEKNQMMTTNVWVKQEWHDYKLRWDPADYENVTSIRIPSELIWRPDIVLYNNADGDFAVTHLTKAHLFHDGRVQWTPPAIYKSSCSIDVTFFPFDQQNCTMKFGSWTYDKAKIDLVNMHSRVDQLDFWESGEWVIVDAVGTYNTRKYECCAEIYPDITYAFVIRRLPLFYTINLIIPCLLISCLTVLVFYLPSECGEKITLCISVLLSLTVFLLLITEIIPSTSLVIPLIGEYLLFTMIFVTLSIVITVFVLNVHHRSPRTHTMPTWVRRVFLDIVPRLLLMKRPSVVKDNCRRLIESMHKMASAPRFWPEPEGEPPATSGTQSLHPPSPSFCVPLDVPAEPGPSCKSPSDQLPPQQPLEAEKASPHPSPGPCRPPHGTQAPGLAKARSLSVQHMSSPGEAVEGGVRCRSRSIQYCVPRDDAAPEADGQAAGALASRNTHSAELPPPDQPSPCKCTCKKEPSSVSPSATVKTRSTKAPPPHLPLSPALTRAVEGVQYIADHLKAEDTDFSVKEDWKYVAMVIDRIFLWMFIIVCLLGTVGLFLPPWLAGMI
metric: EC50 (µM)
Could you give me the number in µM? Just the number is fine.

**Q:** Report value only: EC50, Neuronal acetylcholine receptor; alpha4/beta2 (Homo sapiens, UniProt P17787+P43681), Cc1cn(C)c(OCC[C@@H](C)N(C)C)n1
**A:** 34

---

Biological target: Neuronal acetylcholine receptor; alpha3/beta4 (Rattus norvegicus, UniProt P04757+P12392)
Sequence (P04757 whole entry): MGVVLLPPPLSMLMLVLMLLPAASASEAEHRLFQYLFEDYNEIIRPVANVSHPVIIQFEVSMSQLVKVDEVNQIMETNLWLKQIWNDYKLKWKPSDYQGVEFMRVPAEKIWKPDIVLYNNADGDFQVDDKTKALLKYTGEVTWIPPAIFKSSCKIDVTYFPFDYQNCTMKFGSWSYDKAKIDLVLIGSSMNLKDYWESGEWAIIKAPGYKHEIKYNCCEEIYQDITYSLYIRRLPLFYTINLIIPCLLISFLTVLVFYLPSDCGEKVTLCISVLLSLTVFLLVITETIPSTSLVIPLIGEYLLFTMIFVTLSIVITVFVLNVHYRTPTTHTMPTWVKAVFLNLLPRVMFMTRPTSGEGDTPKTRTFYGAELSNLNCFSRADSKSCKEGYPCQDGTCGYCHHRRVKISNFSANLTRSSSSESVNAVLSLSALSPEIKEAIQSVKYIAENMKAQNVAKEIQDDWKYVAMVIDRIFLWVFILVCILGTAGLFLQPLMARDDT
Sequence (P12392 whole entry): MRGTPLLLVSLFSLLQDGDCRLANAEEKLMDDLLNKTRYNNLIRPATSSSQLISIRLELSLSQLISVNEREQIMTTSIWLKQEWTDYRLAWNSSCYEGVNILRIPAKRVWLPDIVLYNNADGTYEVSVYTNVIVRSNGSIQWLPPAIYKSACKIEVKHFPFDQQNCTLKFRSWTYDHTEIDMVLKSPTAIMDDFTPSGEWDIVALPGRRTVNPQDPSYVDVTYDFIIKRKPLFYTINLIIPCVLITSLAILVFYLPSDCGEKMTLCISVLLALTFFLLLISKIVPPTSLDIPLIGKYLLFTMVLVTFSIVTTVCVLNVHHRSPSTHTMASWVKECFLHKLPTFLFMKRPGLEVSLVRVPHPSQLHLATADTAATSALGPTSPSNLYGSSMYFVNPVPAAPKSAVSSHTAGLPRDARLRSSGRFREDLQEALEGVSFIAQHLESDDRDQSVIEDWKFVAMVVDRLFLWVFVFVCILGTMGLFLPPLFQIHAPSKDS
metric: EC50
Don't forget the unit after the number, please.

**Q:** For the molecule C[C@H](CCOC(=O)N(C)C)N(C)C , report EC50.
**A:** 11 µM
